All figures here come from patent US9695155B2.

# Tested on: Italian ryegrass
# Method summary: Test C preemergence
# Format: in vivo, Lolium multiflorum
# Condition details: Preemergence, 31 g ai/ha; scale 0 to 100, 0 no effect, 100 complete control
# maps each entry to its Plant response rating, Ryegrass, Italian
Recorded endpoint: Plant response rating, Ryegrass, Italian

# Molecule, Target, Experimental result
data = [
    ("N#Cc1cccc(Oc2ncc(Cl)cn2)c1-n1cc(OC(F)F)cn1 [Compound 97]", "Italian ryegrass", 60),
    ("N#Cc1cccc(Oc2ncc(Cl)cn2)c1-n1cc(Cl)cn1 [Compound 72]", "Italian ryegrass", 5),
    ("CC(C)c1cnn(-c2c(C#N)cccc2Oc2ncc(Cl)cn2)c1 [Compound 85]", "Italian ryegrass", 0),
    ("Fc1cnc(Oc2cccc(C(F)F)c2-n2cc(Cl)cn2)nc1 [Compound 94]", "Italian ryegrass", 0),
]

* * *

Listed next: entries and their corresponding Plant response rating (0 to 100), Waterhemp.
# System: waterhemp
# Method summary: Test C postemergence
# Type: in vivo, Amaranthus rudis
# Condition details: 16 g ai/ha, postemergence; 0 is no effect, 100 is complete control
Recorded endpoint: Plant response rating (0 to 100), Waterhemp

# Molecular string, Experimental result
records = [
    ("FCc1cn(-c2ccccc2Oc2ncc(Cl)cn2)nn1", 25),
    ("N#Cc1cnn(-c2c(Oc3ncc(F)cn3)cccc2C(F)F)c1", 10),
    ("FCc1cccc(Oc2ncc(Cl)cn2)c1-n1cc(I)cn1", 60),
    ("FC(F)Oc1cnn(-c2c(Cl)cccc2Oc2ncc(Cl)cn2)c1", 65),
]

* * *

# Test system: large (Lg) crabgrass
# Method summary: Test C preemergence
# Assay type: in vivo, Digitaria sanguinalis
# Condition details: 16 g ai/ha, preemergence; scale 0 to 100 (0 no effect, 100 complete control)

# Molecular string, Target, Crabgrass, Large plant response rating
records = [
    ("N#Cc1cn(-c2c(C#N)cccc2Oc2ncc(Cl)cn2)nn1", "large (Lg) crabgrass", 90),
    ("N#Cc1cnn(-c2c(Oc3ncc(F)cn3)cccc2C(F)F)c1", "large (Lg) crabgrass", 75),
    ("Fc1cnc(Oc2cccc(C(F)F)c2-n2cc(Cl)cn2)nc1", "large (Lg) crabgrass", 25),
    ("NC(=S)c1cccc(Oc2ncc(Cl)cn2)c1-n1cc(Cl)cn1", "large (Lg) crabgrass", 100),
]

* * *

Plant response rating (0 to 100), Chickweed values, listed per item
# Test system: chickweed
# Method summary: Test C postemergence
# Assay type: in vivo, Stellaria media
# Condition details: 16 g ai/ha, postemergence; 0 is no effect, 100 is complete control
Recorded endpoint: Plant response rating (0 to 100), Chickweed

# Molecular string, Target, Experimental result
records = [
    ("FC(F)(F)c1cnn(-c2c(Br)cccc2Oc2ncc(Cl)cn2)c1", "chickweed", 10),
    ("FC(F)c1cnn(-c2c(Br)cccc2Oc2ncc(Cl)cn2)c1", "chickweed", 5),
    ("Fc1cnc(Oc2ccccc2-n2cc(C(F)F)cn2)nc1", "chickweed", 10),
    ("FC(F)Oc1cnn(-c2c(Cl)cccc2Oc2ncc(Cl)cn2)c1", "chickweed", 50),
    ("Clc1cnc(Oc2cccc(Br)c2-n2cc(Cl)cn2)nc1", "chickweed", 20),
]

* * *

Quick reference: Plant response rating, Velvetleaf of the listed items.
# Test system: velvetleaf
# Method summary: Test A preemergence
# Type: in vivo, Abutilon theophrasti
# Condition details: 125 g ai/ha, 0 to 100 scale where 0 is no effect and 100 is complete control
Recorded endpoint: Plant response rating, Velvetleaf

# Molecule, Target, Recorded endpoint, Experimental result
rows = [
    ("N#Cc1cccc(Oc2ncc(Cl)cn2)c1-n1cc(Br)cn1 [Compound 52]", "velvetleaf", "Plant response rating, Velvetleaf", 100),
    ("N#Cc1cccc(Oc2ncc(Br)cn2)c1-n1cc(Br)cn1 [Compound 57]", "velvetleaf", "Plant response rating, Velvetleaf", 40),
    ("C=C(C)c1cnn(-c2ccccc2Oc2ncc(Cl)cn2)c1 [Compound 32]", "velvetleaf", "Plant response rating, Velvetleaf", 10),
    ("Fc1cnc(Oc2cccc(C(F)F)c2-n2cc(Cl)cn2)nc1 [Compound 94]", "velvetleaf", "Plant response rating, Velvetleaf", 90),
    ("Cc1cnc(Oc2cccc(C#N)c2-n2cc(Br)cn2)nc1 [Compound 76]", "velvetleaf", "Plant response rating, Velvetleaf", 90),
    ("Cc1cnn(-c2c(C#N)cccc2Oc2ncc(Cl)cn2)c1 [Compound 95]", "velvetleaf", "Plant response rating, Velvetleaf", 90),
    ("Clc1cnc(Oc2cc(Cl)ccc2-n2cc(Br)cn2)nc1 [Compound 51]", "velvetleaf", "Plant response rating, Velvetleaf", 0),
    ("FC(F)Oc1cnn(-c2ccccc2Oc2ncc(Cl)cn2)c1 [Compound 98]", "velvetleaf", "Plant response rating, Velvetleaf", 90),
    ("Clc1ccc(-n2cccn2)c(Oc2ncc(Br)cn2)c1 [Compound 50]", "velvetleaf", "Plant response rating, Velvetleaf", 0),
    ("N#Cc1cccc(Oc2ncc(Br)cn2)c1-n1cc(Cl)cn1 [Compound 71]", "velvetleaf", "Plant response rating, Velvetleaf", 70),
    ("Clc1cnc(Oc2ccccc2-n2cc(-c3ccccc3)cn2)nc1 [Compound 22]", "velvetleaf", "Plant response rating, Velvetleaf", 0),
    ("FC(F)c1cnn(-c2ccccc2Oc2ncc(Cl)cn2)c1 [Compound 80]", "velvetleaf", "Plant response rating, Velvetleaf", 80),
    ("Clc1cnc(Oc2cc(Cl)ccc2-n2cccn2)nc1 [Compound 49]", "velvetleaf", "Plant response rating, Velvetleaf", 0),
]

* * *

# System: pigweed
# Method summary: Test A preemergence
# Assay type: in vivo, Amaranthus retroflexus
# Condition details: 500 g ai/ha, 0 to 100 scale, 0 no effect, 100 complete control, approx. 10 days
Entries and their Pigweed plant response rating

# Molecular string, Target, Pigweed plant response rating
records = [
    ("Clc1cnc(Oc2cc(Cl)ccc2-n2cc(Br)cn2)nc1", "pigweed", 80),
    ("Cc1cnn(-c2c(C#N)cccc2Oc2ncc(Cl)cn2)c1", "pigweed", 100),
    ("N#Cc1cccc(Oc2ncc(Cl)cn2)c1-n1cc(OC(F)F)cn1", "pigweed", 100),
    ("N#Cc1cccc(Oc2ncc(Br)cn2)c1-n1cc(Cl)cn1", "pigweed", 100),
    ("C=Cc1cnn(-c2ccccc2Oc2ncc(Cl)cn2)c1", "pigweed", 60),
    ("Fc1cnc(Oc2ccccc2-n2cc(C(F)(F)F)cn2)nc1", "pigweed", 100),
    ("Cc1cnc(Oc2ccccc2-n2cc(Br)cn2)nc1", "pigweed", 100),
    ("COc1ccc(Oc2ncc(Br)cn2)c(-n2cc(Br)cn2)c1", "pigweed", 20),
    ("Cc1cccc(Oc2ncc(Br)cn2)c1-n1cc(Br)cn1", "pigweed", 100),
    ("Clc1cnc(Oc2ccccc2-n2ccc(Br)n2)nc1", "pigweed", 100),
]

* * *

# Test system: corn
# Method summary: Test A postemergence
# Type: in vivo, Zea mays
# Condition details: 500 g ai/ha, 0 to 100 scale where 0 is no effect and 100 is complete control
Quick rule for you: Plant response rating, Corn at 50 or higher means label 1, lower means label 0.

# Molecular string, Group
measured = [
    ("FC(F)c1cccc(Oc2ncc(Cl)cn2)c1-n1cc(Cl)cn1", "label 1"),
    ("CCOC(=O)c1cnn(-c2c(C#N)cccc2Oc2ncc(Br)cn2)c1", "label 0"),
    ("N#Cc1cnn(-c2c(C#N)cccc2Oc2ncc(Br)cn2)c1", "label 1"),
    ("N#Cc1cnc(Oc2ccccc2-n2cc(Br)cn2)nc1", "label 0"),
    ("COc1ccc(C#N)c(-n2cc(Br)cn2)c1Oc1ncc(Cl)cn1", "label 0"),
    ("N#Cc1cccc(Oc2ncc(C(F)(F)F)cn2)c1-n1cc(Br)cn1", "label 1"),
    ("FC(F)c1cccc(Oc2ncc(Br)cn2)c1-n1cc(Cl)cn1", "label 0"),
    ("Cc1cnc(Oc2cccc(C#N)c2-n2cc(C(F)(F)F)cn2)nc1", "label 1"),
    ("Cc1cnn(-c2c(C#N)cccc2Oc2ncc(Cl)cn2)c1", "label 1"),
]

* * *

# System: waterhemp
# Method summary: Test C preemergence
# Assay type: in vivo, Amaranthus rudis
# Condition details: Preemergence, 62 g ai/ha; scale 0 to 100, 0 no effect, 100 complete control
# From the text: […]
The compounds listed here are annotated with their Plant response rating, Waterhemp.
Recorded endpoint: Plant response rating, Waterhemp

# Molecular string, Experimental result
records = [
    ("N#Cc1cnn(-c2c(C#N)cccc2Oc2ncc(Cl)cn2)c1", 100),
    ("NC(=S)c1cccc(Oc2ncc(Cl)cn2)c1-n1cc(Cl)cn1", 100),
    ("N#Cc1cn(-c2c(C#N)cccc2Oc2ncc(Cl)cn2)nn1", 98),
    ("Cc1cnc(Oc2cccc(C#N)c2-n2cc(C(F)(F)F)cn2)nc1", 100),
]
